System: Pseudomonas aeruginosa
METHOD NOTES: Antibacterial activity against triABC deficient Pseudomonas aeruginosa PA406 by microdilution method
Type: functional
VALUE TYPE: MIC

Request: Specify measured MIC for CCCCCCCCCO[C@@H]1[C@@H](N)[C@@H](OC[C@@H](O)CN)O[C@H](CN)[C@H]1OCCCCCCCCC .
Response: 4 to 8 µg/mL

Request: Quick one: give measured MIC for NC[C@H]1O[C@H](O[C@H]2[C@H](O)[C@@H](OCc3ccc4ccccc4c3)[C@H](N)C[C@@H]2N)[C@H](N)[C@@H](OCc2ccc3ccccc3c2)[C@@H]1O
Response: 2 to 4 µg/mL

Request: Please give the documented MIC of CCCCCCCCCO[C@@H]1[C@@H](N)[C@@H](O[C@H]2[C@H](O)[C@@H](O)[C@H](N)C[C@@H]2N)O[C@H](CN)[C@H]1OCCCCCCCCC
Response: 8 to 16 µg/mL

Request: Determine from records and report MIC for C=CCO[C@H]1O[C@H](CN)[C@@H](OCCCCCCCCC)[C@H](OCCCCCCCCC)[C@H]1N
Response: > 128 µg/mL

Request: Give MIC for the following molecule: C=CCO[C@H]1O[C@H](CN)[C@@H](O)[C@H](O)[C@H]1N
Response: > 128 µg/mL

Request: Item NC[C@H]1O[C@H](O[C@H]2[C@H](O)[C@@H](O[C@H]3O[C@H](CO)[C@@H](O)[C@H](N)[C@H]3O)[C@H](N)C[C@@H]2N)[C@H](N)C[C@@H]1O : provide MIC
Response: < 0.25 µg/mL
